system: PC-3 prostate; experiment: NCI tumour cell line growth inhibition, 48 h
measurementType: TGI (µM)
Report the figure in µM without appending any unit label.

Input line: TGI for CC1=NN(c2cccc(Cl)c2)C(=O)/C1=C\c1cn(CC(O)CN2CCCCC2)c2ccccc12 (configuration not stated) ?
Output line: 26.1

Input line: TGI for COC1(CC[C@@H](C)COC2OC(CO)C(O)C(O)C2O)OC2C[C@H]3[C@@H]4CC[C@H]5C[C@@H](OC6OC(CO)C(OC7OC(CO)C(O)C(O)C7O)C(O)C6OC6OC(C)C(O)C(O)C6O)[C@H](O)C[C@]5(C)[C@H]4CC[C@]3(C)C2[C@@H]1C (some centres not stated) ?
Output line: 3.45

Input line: TGI for COc1cc2c(/C=C3\C(=O)Nc4ccccc43)c[nH]c2cc1C ?
Output line: 13.2

Input line: TGI for CSc1nc(Nc2cccc(NC(=O)CCl)c2)c(C#N)c(-c2cccc([N+](=O)[O-])c2)n1 ?
Output line: 3.73

Input line: TGI for O=C1c2cccc3cccc(c23)C(=O)N1CCCCCN1CCN(CCN=c2cc3n(-c4ccc(Cl)cc4)c4ccccc4nc-3cc2Nc2ccc(Cl)cc2)CC1 ?
Output line: 28.4
